valueKind: melting point

compound: COc1ccc(OCC(O)CN2CCC3(CC2)CNC(=O)O3)cc1 (centres undefined)
melting point: 151 to 153 °C

Batch lookup, melting point per entry.
1. Cc1cc(C)c(Nc2nc(C)ncc2S(=O)(=O)c2ccc(NCc3ccccc3)cc2)c(C)c1
2. NC(=O)Cc1cc(Oc2ccc3c(ccn3C(=O)Nc3ccc(CN4CCOCC4)c(C(F)(F)F)c3)c2)ncn1
3. CCCOc1nc2sc(Cl)cc2c(=S)n1CCC
4. NC(=O)c1nnn(Cc2ccc(C(=O)c3ccc(Cl)cc3)cc2)c1N

1. 200 to 202 °C
2. 219 to 221 °C
3. 81 to 83 °C
4. 229 to 231 °C

Batch lookup, melting point per entry.
1. CCOC(=O)c1ccc(-c2c(Cl)c(CN3C(=O)CCC3=O)nc3sc4c(c23)CCNC4)cc1
2. Cc1ncc(-c2ccc(Cl)cc2)cc1C(=O)OC(C)(C)C
3. O=C(NN1CCCCC1)c1nn(-c2ccc(Cl)cc2Cl)c(-c2ccc(Cl)cc2)c1COCCO
4. COc1cc2[nH]c(C(=O)OCc3ccccc3)cc2c(C)c1C

["213 to 214 °C", "70 to 72 °C", "194 °C", "161 °C"]

These entries and their values trace back to a melting point compilation (Tetko et al.; mined from patent text by program, amines drawn as free bases though some values may be those of a salt).
